measurement target: hCaSR (Homo sapiens)
Construct: full length cDNAs encoding the human CaSR (commercially available from Origene Inc., USA); host or cells: HEK293T cells stably expressing Galpha16gust44
Sequence (P41180 20-1078): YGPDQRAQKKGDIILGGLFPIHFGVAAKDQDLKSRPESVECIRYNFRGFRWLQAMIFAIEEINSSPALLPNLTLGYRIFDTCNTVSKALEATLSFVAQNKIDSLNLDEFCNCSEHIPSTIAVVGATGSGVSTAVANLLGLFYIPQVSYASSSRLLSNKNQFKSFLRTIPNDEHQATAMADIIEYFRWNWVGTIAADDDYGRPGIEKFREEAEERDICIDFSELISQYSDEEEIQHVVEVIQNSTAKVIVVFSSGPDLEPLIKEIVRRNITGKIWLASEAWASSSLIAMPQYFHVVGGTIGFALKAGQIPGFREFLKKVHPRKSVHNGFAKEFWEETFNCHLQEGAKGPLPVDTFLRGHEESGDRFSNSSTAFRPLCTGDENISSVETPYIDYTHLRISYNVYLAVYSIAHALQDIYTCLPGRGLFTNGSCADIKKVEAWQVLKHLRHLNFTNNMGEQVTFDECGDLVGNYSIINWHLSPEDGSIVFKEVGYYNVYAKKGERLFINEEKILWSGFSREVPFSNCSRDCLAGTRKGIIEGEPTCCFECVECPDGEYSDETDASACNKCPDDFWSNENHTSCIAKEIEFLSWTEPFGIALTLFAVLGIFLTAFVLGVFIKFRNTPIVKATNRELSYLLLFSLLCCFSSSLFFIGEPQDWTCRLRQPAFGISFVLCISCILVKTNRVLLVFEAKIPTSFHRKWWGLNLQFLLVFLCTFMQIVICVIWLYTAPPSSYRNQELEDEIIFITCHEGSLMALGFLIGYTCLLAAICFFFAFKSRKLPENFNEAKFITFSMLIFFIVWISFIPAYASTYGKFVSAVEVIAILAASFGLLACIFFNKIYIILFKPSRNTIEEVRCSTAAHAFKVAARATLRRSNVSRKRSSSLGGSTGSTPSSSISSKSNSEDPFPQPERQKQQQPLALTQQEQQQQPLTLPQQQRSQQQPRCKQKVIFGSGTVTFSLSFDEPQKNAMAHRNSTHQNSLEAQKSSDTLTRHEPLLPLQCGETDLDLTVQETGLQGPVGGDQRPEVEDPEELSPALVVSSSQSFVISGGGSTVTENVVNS
method notes: Fluo-4 calcium assay in cells transfected with hCaSR
Type: cell-based
protocol conditions: transient transfection; calcium chloride 2 mM, sucralose 0.5 mM, aspartame 0.85 mM, perillartine 50 μM, cinnamonitrile 100 μM, cyclamate 1 mM, NDHC 0.33 mM; six replicates
value kind: hCaSR AVG (RFU)

- compound: "N#CC=Cc1ccccc1 [cinnamonitrile]"
  observed result: 197
- compound: "C=C(C)[C@@H]1CC=C(/C=N/O)CC1 [perillartine]"
  observed result: 73
- compound: "[Ca+2].[Cl-].[Cl-] [Calcium, calcium chloride]"
  observed result: 7610
- compound: "OC[C@H]1O[C@H](O[C@]2(CCl)O[C@H](CCl)[C@@H](O)[C@@H]2O)[C@H](O)[C@@H](O)[C@H]1Cl [Sucralose]"
  observed result: 22

These measurements were taken from patent US8124361B2.
